System Tested: GST-Dm-Relish (Drosophila melanogaster, UniProt Q94527 99-473)
Sequence: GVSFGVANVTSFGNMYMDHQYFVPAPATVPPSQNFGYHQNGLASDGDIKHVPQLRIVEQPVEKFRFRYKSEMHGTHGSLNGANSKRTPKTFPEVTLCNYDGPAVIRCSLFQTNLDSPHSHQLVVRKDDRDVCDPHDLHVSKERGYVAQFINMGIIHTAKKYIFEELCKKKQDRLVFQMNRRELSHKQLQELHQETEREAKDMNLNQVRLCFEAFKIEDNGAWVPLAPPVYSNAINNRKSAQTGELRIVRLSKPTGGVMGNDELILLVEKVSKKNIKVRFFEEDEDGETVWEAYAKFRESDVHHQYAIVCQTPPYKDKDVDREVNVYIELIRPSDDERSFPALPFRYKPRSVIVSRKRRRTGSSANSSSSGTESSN
Method: protein-binding microarray (PBM); PBM: ~300 nM protein, 6 mM HEPES pH 7.8, 80 mM KCl, 0.5 mM EDTA, 0.5 mM EGTA, 6% glycerol, 35 ng/ul poly-dIdC, 1% milk, 1 h, room temperature; Ap Aiptasia and Nv Nematostella (sea anemones) / Co Capsaspora / Aq Amphimedon (sponge) / Dm Drosophila / Hu human; RHD is the Rel homology domain; high values mean tight binding
Details: dsDNA, one strand shown
Consider the following sequences and their measured binding signal readings.
Value Type: binding signal (z-score)

[
  {
    "Macromolecule Sequence": "CCGATTAACATCAAGGAATTCCATGATGTTAATCGGGTCTTGATTCGCTTGACGCTGCTG",
    "Recorded Result": 2.32
  },
  {
    "Macromolecule Sequence": "CCGATTAACATCAAAAACTTTCCTGATGTTAATCGGGTCTTGATTCGCTTGACGCTGCTG",
    "Recorded Result": 2.34
  },
  {
    "Macromolecule Sequence": "CCGATTAACATCAGGGAATCTACTGATGTTAATCGGGTCTTGATTCGCTTGACGCTGCTG",
    "Recorded Result": 4.76
  },
  {
    "Macromolecule Sequence": "CCGATTAACATCAGGGGGAGGGATGATGTTAATCGGGTCTTGATTCGCTTGACGCTGCTG",
    "Recorded Result": 3.28
  },
  {
    "Macromolecule Sequence": "CCGATTAACATCAGGAAACTCCCTGATGTTAATCGGGTCTTGATTCGCTTGACGCTGCTG",
    "Recorded Result": 5.39
  },
  {
    "Macromolecule Sequence": "CCGATTAACATCACTAGTTTCCCTGATGTTAATCGGGTCTTGATTCGCTTGACGCTGCTG",
    "Recorded Result": 1.28
  },
  {
    "Macromolecule Sequence": "CCGATTAACATCAGGGAATTTAATGATGTTAATCGGGTCTTGATTCGCTTGACGCTGCTG",
    "Recorded Result": 4.24
  },
  {
    "Macromolecule Sequence": "CCGATTAACATCAGGGGGTTCACTGATGTTAATCGGGTCTTGATTCGCTTGACGCTGCTG",
    "Recorded Result": 10.4
  },
  {
    "Macromolecule Sequence": "CCGATTAACATCACTGAAATCCCTGATGTTAATCGGGTCTTGATTCGCTTGACGCTGCTG",
    "Recorded Result": 3.35
  },
  {
    "Macromolecule Sequence": "CCGATTAACATCAAAGTCCCCCTTGATGTTAATCGGGTCTTGATTCGCTTGACGCTGCTG",
    "Recorded Result": 8.18
  },
  {
    "Macromolecule Sequence": "CCGATTAACATCAAAAAAATCCCTGATGTTAATCGGGTCTTGATTCGCTTGACGCTGCTG",
    "Recorded Result": 8.77
  },
  {
    "Macromolecule Sequence": "CCGATTAACATCAAAAGTTCCCCTGATGTTAATCGGGTCTTGATTCGCTTGACGCTGCTG",
    "Recorded Result": 9.48
  },
  {
    "Macromolecule Sequence": "CCGATTAACATCAATTTTTTCCCTGATGTTAATCGGGTCTTGATTCGCTTGACGCTGCTG",
    "Recorded Result": 2.71
  },
  {
    "Macromolecule Sequence": "CCGATTAACATCAAGGAATTTCCTGATGTTAATCGGGTCTTGATTCGCTTGACGCTGCTG",
    "Recorded Result": 2.04
  },
  {
    "Macromolecule Sequence": "CCGATTAACATCAGGAAGGTCCCTGATGTTAATCGGGTCTTGATTCGCTTGACGCTGCTG",
    "Recorded Result": 1.64
  },
  {
    "Macromolecule Sequence": "CCGATTAACATCAAGTAACCCCCTGATGTTAATCGGGTCTTGATTCGCTTGACGCTGCTG",
    "Recorded Result": 6.97
  },
  {
    "Macromolecule Sequence": "CCGATTAACATCACATTTCCCCATGATGTTAATCGGGTCTTGATTCGCTTGACGCTGCTG",
    "Recorded Result": 2.25
  },
  {
    "Macromolecule Sequence": "CCGATTAACATCAGAGATTCCCCTGATGTTAATCGGGTCTTGATTCGCTTGACGCTGCTG",
    "Recorded Result": 6.36
  },
  {
    "Macromolecule Sequence": "CCGATTAACATCAATAAATCCCCTGATGTTAATCGGGTCTTGATTCGCTTGACGCTGCTG",
    "Recorded Result": 9.26
  },
  {
    "Macromolecule Sequence": "CCGATTAACATCAGGGGGTTTAATGATGTTAATCGGGTCTTGATTCGCTTGACGCTGCTG",
    "Recorded Result": 7.87
  },
  {
    "Macromolecule Sequence": "CCGATTAACATCAGGGGGAGTTATGATGTTAATCGGGTCTTGATTCGCTTGACGCTGCTG",
    "Recorded Result": 5.28
  },
  {
    "Macromolecule Sequence": "CCGATTAACATCAGGGGGGAAACTGATGTTAATCGGGTCTTGATTCGCTTGACGCTGCTG",
    "Recorded Result": 5.47
  },
  {
    "Macromolecule Sequence": "CCGATTAACATCAGGGGGTCTACTGATGTTAATCGGGTCTTGATTCGCTTGACGCTGCTG",
    "Recorded Result": 7.11
  },
  {
    "Macromolecule Sequence": "CCGATTAACATCAAAGTCCCGGGTGATGTTAATCGGGTCTTGATTCGCTTGACGCTGCTG",
    "Recorded Result": 4.38
  },
  {
    "Macromolecule Sequence": "CCGATTAACATCACGAATCCCCCTGATGTTAATCGGGTCTTGATTCGCTTGACGCTGCTG",
    "Recorded Result": 6.03
  },
  {
    "Macromolecule Sequence": "CCGATTAACATCAAAATACCCCGTGATGTTAATCGGGTCTTGATTCGCTTGACGCTGCTG",
    "Recorded Result": 5.44
  },
  {
    "Macromolecule Sequence": "CCGATTAACATCAATTTTCCCCGTGATGTTAATCGGGTCTTGATTCGCTTGACGCTGCTG",
    "Recorded Result": 4.87
  },
  {
    "Macromolecule Sequence": "CCGATTAACATCAGGGAAATACCTGATGTTAATCGGGTCTTGATTCGCTTGACGCTGCTG",
    "Recorded Result": 8.42
  },
  {
    "Macromolecule Sequence": "CCGATTAACATCAATTTTCCCACTGATGTTAATCGGGTCTTGATTCGCTTGACGCTGCTG",
    "Recorded Result": 1.33
  },
  {
    "Macromolecule Sequence": "CCGATTAACATCAGGGAAGCACCTGATGTTAATCGGGTCTTGATTCGCTTGACGCTGCTG",
    "Recorded Result": 9.38
  },
  {
    "Macromolecule Sequence": "CCGATTAACATCAAAATCACCCCTGATGTTAATCGGGTCTTGATTCGCTTGACGCTGCTG",
    "Recorded Result": 5.22
  },
  {
    "Macromolecule Sequence": "CCGATTAACATCAGGGAAGTCCCTGATGTTAATCGGGTCTTGATTCGCTTGACGCTGCTG",
    "Recorded Result": 10.4
  },
  {
    "Macromolecule Sequence": "CCGATTAACATCAGGGTAAACCCTGATGTTAATCGGGTCTTGATTCGCTTGACGCTGCTG",
    "Recorded Result": 5.92
  },
  {
    "Macromolecule Sequence": "CCGATTAACATCAAAACTCCCCGTGATGTTAATCGGGTCTTGATTCGCTTGACGCTGCTG",
    "Recorded Result": 7.5
  },
  {
    "Macromolecule Sequence": "CCGATTAACATCACGGGAGTTCCTGATGTTAATCGGGTCTTGATTCGCTTGACGCTGCTG",
    "Recorded Result": 4.98
  },
  {
    "Macromolecule Sequence": "CCGATTAACATCAAGGGAACCCCTGATGTTAATCGGGTCTTGATTCGCTTGACGCTGCTG",
    "Recorded Result": 9.38
  }
]

Reference for the values: paper PMC5700166
